target.desc: T1, AAV9 (adeno-associated virus 9)
T1 construct: also called adeno-associated virus serotype 9
run.description: SPR, AAV amine-coupled to CM5 chip;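 further: nanobodies flowed as analyte at seven concentrations spanning 1–100 nM over immobilized AAV (500–800 RU), kinetic constants derived by fitting the binding curves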
measurement.label: kon (M⁻¹ s⁻¹)
Give bare numbers, in M⁻¹ s⁻¹.

{"binder": "A4-099 (VHH) VHH: VQLQESGGGLVQTGGSLRLSCAASGSSFSINTMGWYRQAPGKWRELVAAVTRGGDTNYAESVKGRFTISRDNGKNTVYLQMNSLRPEDTAVYYCHIDEIRESSWTTSNLWGQGTQVTVSS", "units.text": "M⁻¹ s⁻¹", "numeric.value": 148000}

Moving on to the next binder.
QUERY: Using the record for A4-097 (VHH) VHH: VQLQESGGGLVQPGGSLRLSCIASGSIFSANTMGWYRQAPGKQRELVATITRGGNTNYGDSVKGRFTISRDNAKNTVYLQMNTLRPEDTAVYYCHVDEIRESSWTTSNLWGQGTQVTVSS , state its measured kon.
RESULT: 131000
